targetOrTestSystem: JEV RdRp (Japanese encephalitis virus)
Construct: NS5 proteins and SARS-CoV-2 nsp12, nsp8 and nsp7 were expressed with appropriate purification and folding tags; His6-TEV site (N)
Sequence (P32886 2528-3432 limits assumed): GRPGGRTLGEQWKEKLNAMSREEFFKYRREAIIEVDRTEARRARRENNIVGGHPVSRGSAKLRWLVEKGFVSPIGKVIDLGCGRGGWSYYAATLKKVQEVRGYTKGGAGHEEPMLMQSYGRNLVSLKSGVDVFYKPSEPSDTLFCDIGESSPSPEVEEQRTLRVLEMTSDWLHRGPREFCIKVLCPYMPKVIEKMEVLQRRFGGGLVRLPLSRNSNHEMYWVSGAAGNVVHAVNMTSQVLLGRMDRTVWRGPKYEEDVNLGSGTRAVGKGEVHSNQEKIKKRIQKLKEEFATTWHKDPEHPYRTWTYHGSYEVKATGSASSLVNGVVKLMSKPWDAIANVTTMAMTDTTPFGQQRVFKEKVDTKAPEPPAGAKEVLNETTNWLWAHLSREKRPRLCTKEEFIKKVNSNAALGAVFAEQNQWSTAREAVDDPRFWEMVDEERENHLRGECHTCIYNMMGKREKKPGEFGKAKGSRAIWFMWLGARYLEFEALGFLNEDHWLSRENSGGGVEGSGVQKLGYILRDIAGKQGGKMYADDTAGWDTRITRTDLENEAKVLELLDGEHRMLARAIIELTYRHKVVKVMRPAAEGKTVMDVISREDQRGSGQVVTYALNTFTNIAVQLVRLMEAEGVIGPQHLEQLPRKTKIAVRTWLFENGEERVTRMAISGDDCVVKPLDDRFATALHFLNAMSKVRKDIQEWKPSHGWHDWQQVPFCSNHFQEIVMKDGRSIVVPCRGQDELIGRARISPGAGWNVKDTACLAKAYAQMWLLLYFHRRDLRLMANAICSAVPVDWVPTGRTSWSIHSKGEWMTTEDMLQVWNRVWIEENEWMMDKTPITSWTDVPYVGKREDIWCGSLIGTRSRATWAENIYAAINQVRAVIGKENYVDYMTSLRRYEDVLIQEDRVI
testProtocol: biochemical
pIC50: −log10 of the molar value.
metric: pIC50

>>> print(df.to_string())
                                   compound                      targetortestsystem  obsvalue
0  Cc1c(C)c2c(c3c1CC[n+]1ccc(/C=C4\Sc5ccccc5N4C)cc1-3)-c1cccc(/C=C3\Sc4ccccc4N3C)[n+]1CC2 [PR673]  JEV RdRp (Japanese encephalitis virus)      5.41
